Sourced from patent US20100286181A1

assay_system: GyrB ATPase activity (E. coli GyrA, E. coli GyrB) (Escherichia coli)
protocol_text: GyrB ATPase inhibition activity assay (ammonium molybdate/malachite green phosphate detection)
Type: biochemical
condition_notes: figure quoted may be an average of two or more results
test_readout: IC50

COCC(COC)(COC)NC(=O)c1nc(N2CC[C@@H](NC(=O)c3[nH]c(C)c(Cl)c3Cl)[C@@H](n3cc(C)nn3)C2)sc1C(=O)O; < 432 nM
Cc1[nH]c(C(=O)N[C@H]2CCN(c3ncc(C(=O)O)s3)C[C@H]2N=[N+]=[N-])c(Cl)c1Cl (racemic); < 9.77 nM

Problem: Any idea what its IC50 is? The molecule is Cc1[nH]c(C(=O)N[C@H]2CCN(c3nc4cccc(C(=O)O)c4s3)C[C@H]2n2ccnc2)c(Cl)c1Cl (racemic)
Result: < 9.77 nM

Problem: Name the reported IC50 value associated with the molecule CO/N=C1\CN(c2nc(-c3ncc[nH]3)c(C(=O)O)s2)CCC1NC(=O)c1[nH]c(C)c(Cl)c1Cl (centres unmarked)
Result: < 9.77 nM

Problem: Item under review: COC(=O)c1cnc(N2CCC(NC(=O)c3[nH]c(C)c(Cl)c3Cl)C3(C2)OCC(C)(C)CO3)s1 (centres unmarked) . Reported IC50?
Result: 155 nM

Problem: Can you look up the measured IC50 of COCC(COC)NC(=O)c1nc(N2CC[C@@H](NC(=O)c3[nH]c(C)c(Cl)c3Cl)[C@@H](n3cc(CC#N)nn3)C2)sc1C(=O)O for me?
Result: < 9.77 nM

Problem: What value of IC50 has been recorded for this entry: C=CCOC(=O)c1sc(N2CCC(NC(=O)c3[nH]c(C)c(Cl)c3Cl)/C(=N/OC)C2)nc1C(=O)NCCOC (centres unmarked)
Result: 86.1 nM

Problem: Quick one: IC50 for COC(=O)c1cnc(N2CC[C@H](NC(=O)c3[nH]c(C)c(Cl)c3Cl)[C@H](N=[N+]=[N-])C2)s1 (racemic) ?
Result: < 9.77 nM

Problem: For COCCNC(=O)c1nc(N2CC[C@@H](NC(=O)c3[nH]c(C)c(Cl)c3Cl)[C@@H](n3cc(CO)nn3)C2)sc1C(=O)O , what is its reported IC50?
Result: < 9.77 nM

Problem: Given the molecule CNC(=O)c1nc(N2CCC(NC(=O)c3[nH]c(C)c(Cl)c3Cl)/C(=N/OC)C2)sc1C(=O)OC (centres unmarked) , what is its reported IC50?
Result: 49.4 nM

Problem: Sample COC(=O)c1cnc(N2CC[C@H](NC(=O)c3[nH]c(C)c(Cl)c3Cl)[C@H](n3ccnc3)C2)s1 (racemic) — what was its IC50?
Result: 90.9 nM

###

Below are IC50 values recorded for GyrB ATPase activity (E. coli GyrA, E. coli GyrB) (Escherichia coli, UniProt P0AES6).

For orientation, consider the following solved cases.
Cc1[nH]c(C(=O)N[C@@H]2CCN(c3nc4cccc(C(N)=O)c4s3)C[C@@H]2n2ccnn2)c(Cl)c1Cl [Example 82]; < 9.77 nM
COC1COC2(CN(c3ncc(C(=O)O)s3)CCC2NC(=O)c2[nH]c(C)c(Cl)c2Cl)OC1 (stereo not shown) [Example 52]; < 9.77 nM

Problem: # query: IC50 | item COCc1cn([C@H]2CN(c3nc(C(=O)NC(COC)COC)c(C(=O)O)s3)CC[C@H]2NC(=O)c2[nH]c(C)c(Cl)c2Cl)nn1 [Example 116] | system: GyrB ATPase activity (E. coli GyrA, E. coli GyrB) (Escherichia coli, UniProt P0AES6)
Result: < 9.77 nM

Problem: IC50 of Cc1[nH]c(C(=O)N[C@@H]2CCN(c3nc4cccc(C(=O)O)c4s3)C[C@@H]2n2ccnn2)c(Cl)c1Cl [Example 124] on GyrB ATPase activity (E. coli GyrA, E. coli GyrB) (Escherichia coli, UniProt P0AES6)?
Result: < 9.77 nM

Problem: For GyrB ATPase activity (E. coli GyrA, E. coli GyrB) (Escherichia coli, UniProt P0AES6), provide IC50 of Cc1[nH]c(C(=O)NC2CCN(c3ncc(C(=O)O)s3)CC23OCCCO3)c(Cl)c1Cl (stereo not shown) [Example 16] please.
Result: < 9.77 nM

Problem: Value wanted: IC50 (GyrB ATPase activity (E. coli GyrA, E. coli GyrB) (Escherichia coli, UniProt P0AES6)) of entry COC1COC2(CN(c3ncc(C(=O)O)s3)CCC2NC(=O)c2[nH]c(C)c(Cl)c2Cl)OC1 (stereo not shown) [Example 53]
Result: < 9.77 nM

Problem: Please state recorded IC50 (tested on GyrB ATPase activity (E. coli GyrA, E. coli GyrB) (Escherichia coli, UniProt P0AES6)) of CC(=O)c1nc(N2CCC(NC(=O)c3[nH]c(C)c(Cl)c3Cl)C3(C2)OCCO3)sc1C(=O)O (stereo not shown) [Example 12]
Result: < 83.1 nM

###

assay_system: UniProtKB P0AES6
protocol_text: GyrB ATPase inhibition activity assay (ammonium molybdate/malachite green phosphate detection)
Assay type: biochemical
condition_notes: figure quoted may be an average of two or more results
Mark label 1 only when IC50 stays strictly below 70 nM. Values equal to the cut-off are label 0.

The following compounds have reported results that may help.
Cc1[nH]c(C(=O)N[C@@H]2CCN(c3ncc(C(=O)O)s3)C[C@@H]2N=[N+]=[N-])c(Cl)c1Cl; label 1
COC(=O)c1cnc(N2CCC(NC(=O)c3[nH]c(C)c(Cl)c3Cl)C(OC)(OC)C2)s1 (stereo not shown); label 0
COCC(COC)NC(=O)c1nc(N2CC[C@@H](NC(=O)c3[nH]c(C)c(Cl)c3Cl)[C@@H](n3cc(Cl)nn3)C2)sc1C(=O)O; label 1
CONC(=O)c1cnc(N2CC[C@@H](NC(=O)c3[nH]c(C)c(Cl)c3Cl)[C@@H](n3ccnn3)C2)s1; label 1
CO/N=C1\CN(c2ncc(C=O)s2)CCC1NC(=O)c1[nH]c(C)c(Cl)c1Cl (stereo not shown); label 1

Problem: Bench note: check whether Cc1[nH]c(C(=O)N[C@H]2CCN(c3ncc(C(=O)O)s3)C[C@H]2n2cnc(Cl)n2)c(Cl)c1Cl (racemic) shows IC50 below 70 nM
Result: label 1

Problem: In the record for CNC(=O)c1nc(N2CCC(NC(=O)c3[nH]c(C)c(Cl)c3Cl)C3(C2)OCCCO3)sc1C(=O)OC(C)C (stereo not shown) , is IC50 less than 70 nM?
Result: label 0

Problem: Is it true that IC50 reported for Cc1[nH]c(C(=O)N[C@H]2CCN(c3ncc(C(=O)O)s3)C[C@H]2n2cncn2)c(Cl)c1Cl (racemic) is less than 70 nM?
Result: label 1

Problem: Field: below-cutoff. Rule: recorded IC50 strictly less than 70 nM. Subject: CCOC(=O)c1sc(N2CC[C@H](NC(=O)c3[nH]c(C)c(Cl)c3Cl)[C@H](n3cncn3)C2)nc1C(=O)N[C@@H](C)COC (racemic)
Result: label 1

Problem: Answer whether the compound C=C1COC2(CN(c3ncc(C(=O)O)s3)CCC2NC(=O)c2[nH]c(C)c(Cl)c2Cl)OC1 (stereo not shown) has IC50 strictly less than 70 nM
Result: label 1

###

Reported IC50, GyrB ATPase activity (E. coli GyrA, E. coli GyrB) (Escherichia coli).

COCn1ccnc1-c1nc(N2CCC(NC(=O)c3[nH]c(C)c(Cl)c3Cl)/C(=N/OC)C2)sc1C(=O)O (centres unmarked); < 9.77 nM
COC(=O)c1cnc(N2CC[C@@H](NC(=O)c3[nH]c(C)c(Cl)c3Cl)[C@@H](n3ccnn3)C2)s1; 12.4 nM
COCCNC(=O)c1nc(N2CC[C@@H](NC(=O)c3[nH]c(C)c(Cl)c3Cl)[C@@H](n3cc(Cl)nn3)C2)sc1C(=O)O; < 9.77 nM
COCCNC(=O)c1nc(N2CC[C@@H](NC(=O)c3[nH]c(C)c(Cl)c3Cl)[C@@H](n3cc(C)nn3)C2)sc1C(=O)O; < 9.77 nM
Cc1[nH]c(C(=O)NC2CCN(c3ncc(C(=O)O)s3)CC23OCC(C)(C)CO3)c(Cl)c1Cl (centres unmarked); < 9.77 nM
COC[C@H](C)NC(=O)c1nc(N2CC[C@H](NC(=O)c3[nH]c(C)c(Cl)c3Cl)[C@H](n3cncn3)C2)sc1C(=O)O (racemic); < 9.77 nM
CO/N=C1\CN(c2nc(-c3ncnn3C)c(C(=O)O)s2)CCC1NC(=O)c1[nH]c(C)c(Cl)c1Cl (centres unmarked); < 9.77 nM
COC(=O)c1cnc(N2CC[C@H](NC(=O)c3[nH]c(C)c(Cl)c3Cl)[C@H](n3cc(C)nn3)C2)s1 (racemic); 36.9 nM
COCC(COC)NC(=O)c1nc(N2CC[C@@H](NC(=O)c3[nH]c(C)c(Cl)c3Cl)[C@@H](n3ccnn3)C2)sc1C(=O)O; < 9.77 nM
COCCNC(=O)c1nc(N2CC[C@@H](NC(=O)c3[nH]c(C)c(Cl)c3Cl)[C@@H](n3cc(COC)nn3)C2)sc1C(=O)O; < 9.77 nM

Problem: Which value of IC50 has been reported for Cc1[nH]c(C(=O)N[C@@H]2CCN(c3nc(C(=O)NC4CC4)c(C(=O)O)s3)C[C@@H]2n2cc(Cl)nn2)c(Cl)c1Cl in the records?
Result: < 9.77 nM

Problem: Entry COC(=O)c1cnc(N2CCC(NC(=O)c3[nH]c(C)c(Cl)c3Cl)C3(C2)OCCO3)s1 (centres unmarked) : reported IC50 = ?
Result: 463 nM

Problem: Reported IC50 for Cc1[nH]c(C(=O)N[C@H]2CCN(c3ncc(C(=O)O)s3)C[C@H]2n2ccnc2)c(Cl)c1Cl (racemic) : what is it?
Result: < 75.6 nM

Problem: // lookup IC50 for COCCNC(=O)c1nc(N2CC[C@@H](NC(=O)c3[nH]c(C)c(Cl)c3Cl)[C@@H](N=[N+]=[N-])C2)sc1C(=O)O
Result: < 9.77 nM
